Origin of values: PubChem BioAssay (NCI)

# method-notes: NCI Yeast Anticancer Drug Screen. Data for the wt1 strain (AID 149)
# condition-description: S. cerevisiae wt1 strain (SPY 50644) growth inhibition; at 100.0 µM
Compounds without any hit were thinned out: in the full panel of roughly 79,000, 15% have a hit. The source made the active and inactive calls. Rule as the data show it: active = growth inhibition above about 70%; inactive = the rest.
Write down the outcome that applies. Available outcomes: yes (active), no (inactive)

Here's what some known entries look like.
molecule	label-class
NC(N)=NS(=O)(=O)c1ccc(Nc2c3ccccc3nc3c(C(=O)NCCO)cccc23)cc1	no
COc1ccc(C(=O)C(CN(C)C)CN(C)C)cc1	no
O=c1ccc2ccccc2c2ccccc12	yes

Input line: // return assay outcome for C/C(=N\Nc1ccc([N+](=O)[O-])cc1[N+](=O)[O-])c1sc(-n2nc(-c3ccccc3)cc2-c2ccccc2)nc1C
Output line: no

Input line: // return assay outcome for CCCCOP(=O)(CCCP(=O)(OCCCC)OCCCC)OCCCC
Output line: yes

Input line: // return assay outcome for O=C(NNc1ccccc1)c1ccc(Cl)c(Cl)c1
Output line: no

Input line: // return assay outcome for O=C1Nc2ccccc2/C1=C/c1ccccc1
Output line: no
